B1: RAD51 (parent)
chain: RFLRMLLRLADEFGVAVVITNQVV

- Variants of: B1
- protocol.summary: protein stability index of a GFP-peptide fusion (GPS, HEK-293T) (PSI 1-6); higher = more stable;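 further: lentivirally expressed fusions sorted by FACS into six bins by GFP to DsRed ratio, PSI derived from sequencing read proportions per bin multiplied by bin number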
- test.settings: c terminus: a fixed tail appended
Please go through the items and note down their protein stability index.
Numbers only.

Example cases with answers are listed next.
{"columns": ["mutant", "protein stability index"],
 "data": [
  ["V17I", 3.4],
  ["V17L", 2.96],
  ["F13M", 2.21]
]}

Pending variant:
# protein stability index lookup, item E12A 2.02
